# Tested on: HUVEC
# Assay Remarks: Cell cycle analysis of HUVEC by flow cytometry
# Assay type: cell-based, human
# Measurement Parameters: 24 h of treatment
# Procedure: Exponentially growing HUVEC were treated with the test compounds for 24 or 48 h, and processed for cell cycle analysis. After harvesting cells by trypsin treatment, isolation and staining of cell nuclei were performed using a CycleTEST™ PLUS DNA Reagent Kit (Becton & Dickinson, Rutherford, N.J.), according to the procedure recommended by the manufacturer. […] Fluorescence histograms were generated with a FACSCalibur cytometer (Becton & Dickinson, Rutherford, N.J.), using CELLQuest software.
Observable: concentration that gave close to the maximum accumulation (>70%) of HUVEC in G1 (µM)

[[record]]
molecule = "Cc1c(O)c(=O)ccn1C [deferiprone, 1,2-dimethyl-3-hydroxypyrid-4-one]"
experimental_system = "HUVEC"
value = 200

[[record]]
molecule = "Cc1cc(C2CCCCC2)n(O)c(=O)c1"
experimental_system = "HUVEC"
value = 30

[[record]]
molecule = "CC(=O)N(O)CCCCCNC(=O)CCC(=O)N(O)CCCCCNC(=O)CCC(=O)N(O)CCCCCN"
experimental_system = "HUVEC"
value = 50

[[record]]
molecule = "c1ccc(-c2ccccn2)nc1"
experimental_system = "HUVEC"
value = 100


The reported numbers originate from patent US7141589B2.
